Provenance of the data: patent US8124624B2

# measured.on: human B1R (Homo sapiens)
# Construct: expressed in transfected cells; host or cells: CHO K1 cells (hB1R cells)
# Sequence (P46663 1-353): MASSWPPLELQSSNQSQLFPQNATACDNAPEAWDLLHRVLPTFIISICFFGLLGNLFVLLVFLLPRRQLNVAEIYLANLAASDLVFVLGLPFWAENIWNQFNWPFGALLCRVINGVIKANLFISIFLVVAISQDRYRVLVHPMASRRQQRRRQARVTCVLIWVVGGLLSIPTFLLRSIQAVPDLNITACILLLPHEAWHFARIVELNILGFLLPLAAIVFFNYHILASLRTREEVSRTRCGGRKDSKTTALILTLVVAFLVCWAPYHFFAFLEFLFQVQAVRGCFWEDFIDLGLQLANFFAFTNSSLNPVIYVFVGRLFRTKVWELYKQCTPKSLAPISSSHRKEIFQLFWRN
# run.description: FLIPR Ca2+ influx assay, B1R antagonism, human (hB1R CHO K1 cells)
# Type: cell-based
# condition.parameters: test substance 10 μM; CHO K1 cells stably transfected with human B1R; agonist Lys-Des-Arg9-bradykinin at EC80; % inhibition compared with maximum achievable inhibition; read-out: B1R antagonism, human [10 μM] % inhibition
Counter-ions that a name gives are not always drawn.
test.readout: inhibition at 10 µM (%)

INSERT INTO measurements (compound, measured_on, obs_value) VALUES
  ('COc1cc(C)c(S(=O)(=O)N(C)CCOCC(=O)N2CCC(CCN(C)C)(c3cccnc3)CC2)c(C)c1', 'human B1R (Homo sapiens)', 104),
  ('O=C(CC(NS(=O)(=O)c1ccc2ccccc2c1)c1ccccc1)N1CCC(CCCN2CCCC2)(c2cccnc2)CC1 (centres unmarked)', 'human B1R (Homo sapiens)', 94),
  ('COc1cc(C)c(S(=O)(=O)N2CCCC[C@H]2COCC(=O)N2CCC(CCN3CCCC3)(c3cccnc3)CC2)c(C)c1 [Example 80, hydrochloride]', 'human B1R (Homo sapiens)', 100);

1: Cc1cc(S(=O)(=O)N2CCCCC2CCC(=O)N2CCC(CCCN3CCCC3)(c3cccnc3)CC2)c(C)cc1Cl (centres unmarked)
2: CN(C)CCCC1(c2cccnc2)CCN(C(=O)CC(NS(=O)(=O)c2ccc3ccccc3c2)c2ccccc2)CC1 (centres unmarked)
Smaller inhibition at 10 µM value? Options are 1 and 2 Answer by stating the label of the chosen item. 2
(2: 57%, 1: 84%)

1: O=C(COCC1CCc2ccccc2N1S(=O)(=O)c1ccc(Cl)c(Cl)c1)N1CCC(CCN2CCCC2)(c2cccnc2)CC1 (centres unmarked)
2: CN(C)CCCC1(c2cccnc2)CCN(C(=O)COCC2CCc3ccccc3N2S(=O)(=O)c2ccc(Cl)c(Cl)c2)CC1 (centres unmarked)
Smaller inhibition at 10 µM value? Options are 1 and 2 Answer by stating the label of the chosen item. 2
(2: 56%, 1: 100%)

a: COc1cc(C)c(S(=O)(=O)N2CCCC[C@H]2COCC(=O)N2CCC(CCCN3CCCC3)(c3cccnc3)CC2)c(C)c1 [Example 81, hydrochloride]
b: O=C(COCC1CCc2ccccc2N1S(=O)(=O)c1ccc(Cl)c(Cl)c1)N1CCC(CCCN2CCCC2)(c2cccnc2)CC1 (centres unmarked)
Smaller inhibition at 10 µM value? Options are a and b Answer by stating the label of the chosen item. b

###

# measured.on: B1R of the rat (Rattus norvegicus, UniProt P97583)
# Construct: expressed in transfected cells; host or cells: CHO K1 cells (rB1R cells)
# Sequence (P97583 whole entry): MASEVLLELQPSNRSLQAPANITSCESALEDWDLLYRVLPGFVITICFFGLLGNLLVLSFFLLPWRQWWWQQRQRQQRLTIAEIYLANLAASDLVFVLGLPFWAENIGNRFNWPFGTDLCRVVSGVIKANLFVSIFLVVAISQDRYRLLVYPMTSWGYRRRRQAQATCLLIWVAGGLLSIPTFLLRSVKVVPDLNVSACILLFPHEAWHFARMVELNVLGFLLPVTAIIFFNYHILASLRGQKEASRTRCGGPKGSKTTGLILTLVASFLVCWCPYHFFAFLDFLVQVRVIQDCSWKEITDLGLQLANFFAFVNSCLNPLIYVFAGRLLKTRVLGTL
# run.description: FLIPR Ca2+ influx assay, B1R antagonism, rat (rB1R CHO K1 cells)
# Type: cell-based
# condition.parameters: test substance 10 μM; CHO K1 cells stably transfected with rat B1R; agonist Des-Arg9-bradykinin at EC80; % inhibition compared with maximum achievable inhibition; read-out: B1R antagonism, rat [10 μM] % inhibition
# Source text: The agonistic or antagonistic action of substances can be quantified on the bradykinin receptor 1 (B1R) of the species human and rat using ectopically expressing cell lines (CHO K1 cells) and with the aid of a Ca^2+-sensitive dye (Fluo-4) using a fluorescent imaging plate reader (FLIPR). […] The agonistic or antagonistic action of substances can be determined on the bradykinin receptor 1 (B1R) of the species human and rat using the following assay. […]
test.readout: inhibition at 10 µM (%)

INSERT INTO assay_data (molecule, test_readout, obs_value) VALUES
  ('COc1cc(C)c(S(=O)(=O)N(C)CCOCC(=O)N2CCC(CCN(C)C)(c3cccnc3)CC2)c(C)c1', 'inhibition at 10 µM', 102),
  ('COc1cc(C)c(S(=O)(=O)N2CCCCC2CCCC(=O)N2CCC(CCCN3CCCC3)(c3cccnc3)CC2)c(C)c1 (centres unmarked)', 'inhibition at 10 µM', 104),
  ('COc1cc(C)c(S(=O)(=O)N(CCOCC(=O)N2CCC(CCCN3CCCC3)(c3ccncc3)CC2)Cc2ccc3c(c2)OCOC3)c(C)c1', 'inhibition at 10 µM', 101),
  ('COc1cc(C)c(S(=O)(=O)N2c3ccccc3OCC2COCC(=O)N2CCC(CCCN3CCCC3)(c3ccncc3)CC2)c(C)c1 (centres unmarked)', 'inhibition at 10 µM', 99),
  ('COc1cc(C)c(S(=O)(=O)N(C)CCOCC(=O)N2CCC(CCCN3CCCC3)(c3ccncc3)CC2)c(C)c1C', 'inhibition at 10 µM', 100),
  ('CN(C)CCC1(c2cccnc2)CCN(C(=O)COCC2CCc3ccccc3N2S(=O)(=O)c2ccc(Cl)c(Cl)c2)CC1 (centres unmarked)', 'inhibition at 10 µM', 90),
  ('COc1cc(C)c(S(=O)(=O)N2CCCCC2COCC(=O)N2CCC(CCN(C)C)(c3cccnc3)CC2)c(C)c1 (centres unmarked)', 'inhibition at 10 µM', 102),
  ('CN(C)CCCC1(c2cccnc2)CCN(C(=O)CC(NS(=O)(=O)c2ccc3ccccc3c2)c2ccccc2)CC1 (centres unmarked)', 'inhibition at 10 µM', 94),
  ('COc1cc(C)c(S(=O)(=O)N2c3ccccc3OCC2COCC(=O)N2CCC(CCCN3CCCC3)(c3cccnc3)CC2)c(C)c1 (centres unmarked)', 'inhibition at 10 µM', 102),
  ('Cc1cccc(Cl)c1S(=O)(=O)N1c2ccccc2OCC1COCC(=O)N1CCC(CCCN2CCCC2)(c2cccnc2)CC1 (centres unmarked)', 'inhibition at 10 µM', 103),
  ('O=C(CCCC1CCCCN1S(=O)(=O)c1ccccc1C(F)(F)F)N1CCC(CCCN2CCCC2)(c2ccncc2)CC1 (centres unmarked)', 'inhibition at 10 µM', 99),
  ('COc1cc(C)c(S(=O)(=O)N2CCCCC2COCC(=O)N2CCC(CCCN(C)C)(c3cccnc3)CC2)c(C)c1 (centres unmarked)', 'inhibition at 10 µM', 102),
  ('O=C(COCC1CCc2ccccc2N1S(=O)(=O)c1ccc(Cl)c(Cl)c1)N1CCC(CCN2CCCC2)(c2cccnc2)CC1 (centres unmarked)', 'inhibition at 10 µM', 85),
  ('Cc1cccc(Cl)c1S(=O)(=O)N(CCOCC(=O)N1CCC(CCCN2CCCC2)(c2cccc(F)c2)CC1)C1CC1', 'inhibition at 10 µM', 103);

###

# measured.on: human B1R (Homo sapiens, UniProt P46663)
# Construct: expressed in transfected cells; host or cells: CHO K1 cells (hB1R cells)
# run.description: FLIPR Ca2+ influx assay, B1R antagonism, human (hB1R CHO K1 cells)
# Format: cell-based
# condition.parameters: test substance 10 μM; CHO K1 cells stably transfected with human B1R; agonist Lys-Des-Arg9-bradykinin at EC80; % inhibition compared with maximum achievable inhibition; read-out: B1R antagonism, human [10 μM] % inhibition
test.readout: inhibition at 10 µM (%)

The examples below pair each entry with its known result.
INSERT INTO measurements (compound, measured_on, obs_value) VALUES
  ('CN(C)CCC1(c2cccnc2)CCN(C(=O)CC2CCCCN2S(=O)(=O)c2cccc(C(F)(F)F)c2)CC1 (stereo not shown)', 'human B1R (Homo sapiens, UniProt P46663)', 103),
  ('COc1cc(C)c(S(=O)(=O)N2CCCCC2CCCC(=O)N2CCC(CCCN3CCCC3)(c3cccnc3)CC2)c(C)c1 (stereo not shown)', 'human B1R (Homo sapiens, UniProt P46663)', 100),
  ('COc1cc(C)c(S(=O)(=O)N(C)CCOCC(=O)N2CCC(CCCN3CCCC3)(c3cccnc3)CC2)c(C)c1C', 'human B1R (Homo sapiens, UniProt P46663)', 100),
  ('COc1cc(C)c(S(=O)(=O)N(C)CCOCC(=O)N2CCC(CCCN3CCCC3)(c3cccnc3)CC2)c(C)c1', 'human B1R (Homo sapiens, UniProt P46663)', 97),
  ('O=C(CC1CCCCN1S(=O)(=O)c1cccc(C(F)(F)F)c1)N1CCC(CCCN2CCCC2)(c2cccnc2)CC1 (stereo not shown)', 'human B1R (Homo sapiens, UniProt P46663)', 35);

a: CN(C)CCC1(c2cccnc2)CCN(C(=O)CC(NS(=O)(=O)c2ccc3ccccc3c2)c2ccccc2)CC1 (stereo not shown)
b: CN(C)CCCC1(c2cccnc2)CCN(C(=O)CC2CCCCN2S(=O)(=O)c2cccc(C(F)(F)F)c2)CC1 (stereo not shown)
Smaller inhibition at 10 µM value? Options are a and b Answer by stating the label of the chosen item. b
